Experiment: Cytotoxicity screening in MRC5 (CellTiter Glo, fluorescence microscopy)
Format: cell-based
Conditions: human, MRC5 cells, read-out: MRC5 IC50, Membrane Integrity
ENDPOINT: IC50 at 48 h
A complete answer gives the number followed by the unit.

> print(dat)
                            chemical.string   result
1  CN(C)CC#Cc1cccc(-c2nc(C(=O)N[C@@H]3CCN(Cc4ccccc4)C3)cc3c2[C@@H](CCO)N([S@+]([O-])C(C)(C)C)C3)c1  13.4 µM

Now for a further compound.
In: Any idea what its IC50 at 48 h is? The compound is CN(C)CC#Cc1cccc(-c2nc(C(=O)NCc3ccc4c(c3)OCO4)cc3c2[C@@H](CCO)N([S@+]([O-])C(C)(C)C)C3)c1
Out: 24.4 µM
